experimental target: human glucagon receptor (human, UniProt P47871 26-477)
experiment description: cell-based or functional assay
Starred links: 1 amine or outer side, 2 acyl side, 3 side chain; linkers in the order of their positions; H or OH if unused. Non-standard residues stand in square brackets, D forms with d. No end group written: not given here. *: point of attachment. AMCB = 2-amino-5-(4-chloro-2-methylphenyl)pentanoic acid, Cc1cc(Cl)ccc1CCC[C@H](N[*:1])C(=O)[*:2]; ACPP = 2-amino-5-(3-chlorophenyl)pentanoic acid, O=C([C@H](CCCc1cccc(Cl)c1)N[*:1])[*:2]; Bip(2'-Et-4'-OMe) = CCc1cc(OC)ccc1-c1ccc(C[C@H](N)C(=O)O)cc1; Leu(5,5,5,5',5',5'-F6) = N[C@@H](CC(C(F)(F)F)C(F)(F)F)C(=O)O; 2F‑APPA = 2-amino-5-(2-fluorophenyl)pentanoic acid; αMePhe(2-F) = C[C@](N)(Cc1ccccc1F)C(=O)O; NMeBip(OMe) = N-methylated Bip(OMe); hhPhe = N[C@@H](CCCc1ccccc1)C(=O)O; 2,4‑diCl‑APPA = not defined here; NMeD = CN[C@@H](CC(=O)O)C(=O)O; aThr = C[C@H](O)[C@H](N)C(=O)O; NMeAPPA = not defined here; CNB = not defined here; Aib = CC(C)(N)C(=O)O; Moc = COC(=O)*
measured quantity: inhibition of cAMP production, 10 µM

[
  {
    "binder": "H[Aib][CNB]G[aThr][αMePhe(2-F)]TSD[Bip(2'-Et-4'-OMe)][2F‑APPA] (reading uncertain) [Seq. ID. No. 112: H-Aib-(CNB)-G-T(allo)-(α-Me-2F-Phe)-TSD-Bip(OMe)-(2F-APPA)]",
    "measured quantity": "inhibition of cAMP production, 10 µM",
    "recorded measurement": "0 pmol/ml/µg prt"
  }
]

// lookup inhibition of cAMP production, 10 µM for HSQGTFTSD[Bip(2'-Et-4'-OMe)][2,4‑diCl‑APPA] (reading uncertain) [Seq. ID. No. 51: HSQGTFTSD-Bip(OMe)-(2,4-diCl-APPA)]
0 pmol/ml/µg prt

// lookup inhibition of cAMP production, 10 µM for H[Aib][CNB]G[aThr][αMePhe(2-F)][aThr]SD[Bip(2'-Et-4'-OMe)][hhPhe] (reading uncertain; also: thioamide bonds between residues 9-10 and 10-11) [Seq. ID. No. 178: H-Aib-(CNB)-G-T(allo)-(α-Me-2F-Phe)-T(allo)-SD-(C═S)-Bip(OMe)-(C═S)-(APPA)]
0 pmol/ml/µg prt

// lookup inhibition of cAMP production, 10 µM for Ac-H[Aib][CNB]GT[αMePhe(2-F)]TSD[Bip(2'-Et-4'-OMe)][hhPhe] (reading uncertain) [Seq. ID. No. 205: CH3CO-H-Aib-(CNB)-GT-(α-Me-2F-Phe)-TSD-Bip(OMe)-(APPA)]
0 pmol/ml/µg prt

// lookup inhibition of cAMP production, 10 µM for Moc-H[Aib]QG[aThr][αMePhe(2-F)][aThr]S[NMeD][NMeBip(OMe)][NMeAPPA] (reading uncertain)
1 pmol/ml/µg prt

// lookup inhibition of cAMP production, 10 µM for Moc-H[Aib]QG[aThr][αMePhe(2-F)][aThr]SD[Bip(2'-Et-4'-OMe)][2F‑APPA] (also: reduced (CH2) bond between 10 and 11) [Seq. ID. No. 188: CH3OCO-H-Aib-QG-T(allo)-(α-Me-2F-Phe)-T(allo)-SD-Bip(OMe)-(CH2)-(2F-APPA)]
0 pmol/ml/µg prt

// lookup inhibition of cAMP production, 10 µM for H[Aib][Leu(5,5,5,5',5',5'-F6)]GT[αMePhe(2-F)]TSD[Bip(2'-Et-4'-OMe)][AMCB] [Seq. ID. No. 237: H-Aib-(Hfl)-GT-(α-Me-2F-Phe)-TSD-Bip(OMe)-(AMCB)]
16 pmol/ml/µg prt

// lookup inhibition of cAMP production, 10 µM for H[Aib][CNB]GTFTSD[Bip(2'-Et-4'-OMe)][ACPP] (reading uncertain) [Seq. ID. No. 31: H-Aib-(CNB)-GTFTSD-Bip(OMe)-(ACPP)]
0 pmol/ml/µg prt

// lookup inhibition of cAMP production, 10 µM for Ac-H[Aib][Leu(5,5,5,5',5',5'-F6)]GT[αMePhe(2-F)]TSD[Bip(2'-Et-4'-OMe)][2F‑APPA] [Seq. ID. No. 212: CH3CO-H-Aib-(Hfl)-GT-(α-Me-2F-Phe)-TSD-Bip(OMe)-(2F-APPA)]
1 pmol/ml/µg prt

Ref: patent US20120021972A1
